Compiled record: pKi values for Stromelysin-1 (Homo sapiens, UniProt P08254) across several sources.
Note on units: pKi is unitless, being -log10 of a concentration expressed in mol/L.

Solved cases below.
| COMPOUND | TESTED ON | pKi |
| --- | --- | --- |
| CNC(=O)[C@@H]1CCCc2ccc(cc2)OCCC[C@H](C(=O)NO)[C@@H](CC(C)C)C(=O)N1 | Stromelysin-1 (Homo sapiens, UniProt P08254) | 7.79 |
| CCCCCCCCCC[C@H](N[C@H](C)C(=O)O)C(=O)N[C@@H](CC(C)C)C(=O)Nc1ccccc1 | Stromelysin-1 (Homo sapiens, UniProt P08254) | 6.07 |
| O=C(C[C@@H](CCCc1ccccc1)C(=O)N[C@@H](CC1CCCCC1)C(=O)NCCC(=O)NCCc1ccc(S(=O)(=O)O)cc1)NO | Stromelysin-1 (Homo sapiens, UniProt P08254) | 7.09 |
| CCCC[C@@H](C[C@@H](CCc1ccc(-c2ccc(-c3ccccc3)cc2)cc1)C(=O)N[C@H](C(=O)NC)C(C)(C)C)C(=O)O | Stromelysin-1 (Homo sapiens, UniProt P08254) | 7.41 |
| CCCCCCC(CC(=O)NO)S(=O)(=O)N[C@@H](Cc1ccc(OC)cc1)C(=O)NC (stereo partly specified) | Stromelysin-1 (Homo sapiens, UniProt P08254) | 5.40 |

Pending compound:
# input Param item = CNC(=O)[C@H](CCCCN)NC(=O)[C@H](CCCc1ccccc1)[C@@](C)(O)C(=O)NO ; retrieve measured pKi.
# output 7.49
